Target: HPK1
Assay: HPK1 Lantha Binding Assay ("Lanth")
Conditions: Table B1-1, read-out: HPK1 Ki (μM) (Lanth)
Could you mark each record Y if its Ki falls strictly under 0.5 nM, and N if it equals or exceeds it?

Enquiry: Lab note: confirm whether the reported Ki for this compound is below 0.5 nM, equality not counting. compound: Cn1cc([C@@H]2C[C@H]2C(=O)Nc2cc3c(Cl)c(-c4cnccc4CCO)nc(N)c3cn2)cn1 [Compound 333]
Return: Y

Enquiry: Lab note: confirm whether the reported Ki for this compound is below 0.5 nM, equality not counting. compound: Cc1ccncc1-c1cc2cc(Nc3cnn(CCO)c3)ncc2c(N)n1 [Compound 169]
Return: Y

Enquiry: Lab note: confirm whether the reported Ki for this compound is below 0.5 nM, equality not counting. compound: Cc1ccncc1-c1cc2cc(NC(=O)[C@H]3C[C@]34CCNC(=O)C4)ncc2c(N)n1 [Compound 313]
Return: Y

Enquiry: Lab note: confirm whether the reported Ki for this compound is below 0.5 nM, equality not counting. compound: Cc1ccncc1-c1cc2cc(NC(=O)NC3CNC3)ncc2c(N)n1 [Compound 175]
Return: N

Enquiry: Lab note: confirm whether the reported Ki for this compound is below 0.5 nM, equality not counting. compound: COc1ccc(C)c(-c2cc3cc(NC(=O)[C@H]4C[C@@H]4c4cnn(C)c4)ncc3c(N)n2)c1 [Compound 288]
Return: N

Enquiry: Lab note: confirm whether the reported Ki for this compound is below 0.5 nM, equality not counting. compound: Cc1ccncc1-c1cc2cc(NC(=O)C(C)(C)O)ncc2c(N)n1 [Compound 39]
Return: N

Enquiry: Lab note: confirm whether the reported Ki for this compound is below 0.5 nM, equality not counting. compound: Cc1ccncc1-c1cc2cc(Nc3cnn([C@@H](C)C#N)c3)ncc2c(N)n1 [Compound 274]
Return: Y

Enquiry: Lab note: confirm whether the reported Ki for this compound is below 0.5 nM, equality not counting. compound: CCc1ccncc1-c1cc2cc(NC(=O)c3cc(C)[nH]n3)ncc2c(N)n1 [Compound 70]
Return: N

###

Biological target: HPK1
Test: HPK1 Lantha Binding Assay ("Lanth")
Settings: Table B1-1, read-out: HPK1 Ki (μM) (Lanth)
Could you mark each record Fulfilled if its Ki falls strictly under 1 nM, and Not fulfilled if it equals or exceeds it?

Enquiry: Lab note: confirm whether the reported Ki for this molecule is below 1 nM, equality not counting. molecule: "CCc1ccncc1-c1cc2cc(NC(=O)N[C@H]3C[C@@H](O)C3)ncc2c(N)n1"
Return: Not fulfilled

Enquiry: Lab note: confirm whether the reported Ki for this molecule is below 1 nM, equality not counting. molecule: "CCc1ccncc1-c1cc2cc(NC(=O)NC(C)C)ncc2c(N)n1"
Return: Not fulfilled

Enquiry: Lab note: confirm whether the reported Ki for this molecule is below 1 nM, equality not counting. molecule: "CCc1ccncc1-c1cc2cc(NC(=O)NCc3cncs3)ncc2c(N)n1"
Return: Not fulfilled

Enquiry: Lab note: confirm whether the reported Ki for this molecule is below 1 nM, equality not counting. molecule: "Cc1ccncc1-c1cc2cc(Nc3cnn([C@@H]4CCCN(C)C4=O)c3)ncc2c(N)n1"
Return: Fulfilled

Enquiry: Lab note: confirm whether the reported Ki for this molecule is below 1 nM, equality not counting. molecule: "CCc1ccncc1-c1cc2cc(Nc3cc[nH]n3)ncc2c(N)n1"
Return: Fulfilled

Enquiry: Lab note: confirm whether the reported Ki for this molecule is below 1 nM, equality not counting. molecule: "Cc1ccncc1-c1cc2cc(NC(=O)Nc3ccccc3C#N)ncc2c(N)n1"
Return: Not fulfilled

Enquiry: Lab note: confirm whether the reported Ki for this molecule is below 1 nM, equality not counting. molecule: "Cn1cc([C@H]2C[C@@H]2C(=O)Nc2cc3cc(-c4c(F)cccc4Cl)nc(N)c3cn2)cn1"
Return: Fulfilled

###

Molecular target: HPK1
Assay: HPK1 Lantha Binding Assay ("Lanth")
Settings: Table B1-1, read-out: HPK1 Ki (μM) (Lanth)
measured.attribute: Ki

Enquiry: Please indicate recorded Ki of Cn1cc([C@H]2C[C@@H]2C(=O)Nc2cc3cc(-c4ccccc4Cl)nc(N)c3cn2)cn1 (stereo in doubt) [Compound 304] measured with HPK1.
Return: 3.02 nM

Enquiry: Please indicate recorded Ki of N#C[C@@H]1C[C@H]1C(=O)Nc1cc2cc(-c3cnccc3-c3cn[nH]c3)nc(N)c2cn1 [Compound 235] measured with HPK1.
Return: 0.706 nM

Enquiry: Please indicate recorded Ki of N#CC[C@@H]1C[C@H]1C(=O)Nc1cc2cc(-c3c(Cl)cccc3Cl)nc(N)c2cn1 [Compound 311] measured with HPK1.
Return: 1.15 nM

Enquiry: Please indicate recorded Ki of Cn1cc([C@H]2C[C@@H]2C(=O)Nc2cc3cc(-c4cnccc4CCO)nc(N)c3cn2)cn1 [Compound 215] measured with HPK1.
Return: 1.19 nM

Enquiry: Please indicate recorded Ki of Cn1cc([C@H]2C[C@@H]2C(=O)Nc2cc3cc(-c4ccccc4Cl)nc(N)c3cn2)cn1 [Compound 305] measured with HPK1.
Return: 0.152 nM

Enquiry: Please indicate recorded Ki of Nc1nc(-c2cnccc2CO)cc2cc(NC(=O)[C@@H]3C[C@@H]3F)ncc12 [Compound 44] measured with HPK1.
Return: 48 nM

Enquiry: Please indicate recorded Ki of Cc1c(N)cncc1-c1cc2cc(NC(=O)[C@@H]3C[C@H]3CC#N)ncc2c(N)n1 [Compound 248] measured with HPK1.
Return: 1.03 nM

Enquiry: Please indicate recorded Ki of Cc1cc(-c2cnn(C)c2)ncc1-c1cc2cc(NC(=O)[C@@H]3C[C@H]3CC#N)ncc2c(N)n1 [Compound 237] measured with HPK1.
Return: 10.2 nM

Enquiry: Please indicate recorded Ki of Cc1ccncc1-c1cc2cc(Nc3cnn(CC(F)F)c3)ncc2c(N)n1 [Compound 257] measured with HPK1.
Return: 1.01 nM

Enquiry: Please indicate recorded Ki of CNC(=O)Nc1cc2cc(-c3cnccc3C)nc(N)c2cn1 [Compound 130] measured with HPK1.
Return: 2.6 nM

Enquiry: Please indicate recorded Ki of Cc1ccncc1-c1cc2cc(NC(=O)[C@H]3C[C@@H]3C3CCOCC3)ncc2c(N)n1 [Compound 324] measured with HPK1.
Return: 0.48 nM

Enquiry: Please indicate recorded Ki of Cc1cc(-c2cnn(C)c2)ncc1-c1cc2cc(NC(=O)[C@H]3C[C@@H]3CC#N)ncc2c(N)n1 [Compound 238] measured with HPK1.
Return: 1.94 nM

Enquiry: Please indicate recorded Ki of Nc1nc(-c2cnccc2CCO)cc2cc(NC(=O)[C@H]3C[C@@H]3c3cnsc3)ncc12 [Compound 245] measured with HPK1.
Return: 5.42 nM

Enquiry: Please indicate recorded Ki of Cc1ccc(C(=O)N(C)C)cc1-c1cc2cc(NC(=O)[C@@H]3C[C@H]3c3cnn(C)c3)ncc2c(N)n1 [Compound 291] measured with HPK1.
Return: 63.8 nM

Enquiry: Please indicate recorded Ki of Cc1ccncc1-c1cc2cc(NC(=O)[C@@H]3C[C@@H]3F)ncc2c(N)n1 [Compound 6] measured with HPK1.
Return: 0.793 nM

Enquiry: Please indicate recorded Ki of CCc1ncncc1-c1cc2cc(NC(=O)[C@@H]3C[C@@H]3F)ncc2c(N)n1 [Compound 13] measured with HPK1.
Return: 15.6 nM

Enquiry: Please indicate recorded Ki of Cc1c(N)cncc1-c1cc2cc(NC(=O)[C@H]3C[C@@H]3C#N)ncc2c(N)n1 [Compound 200] measured with HPK1.
Return: 0.343 nM

Enquiry: Please indicate recorded Ki of Cc1ccncc1-c1nc(N)c2cnc(NC(=O)[C@H]3C[C@@H]3CC#N)cc2c1Cl [Compound 270] measured with HPK1.
Return: 0.116 nM

Enquiry: Please indicate recorded Ki of Cc1ccncc1-c1cc2cc(NC(=O)[C@H]3[C@@H]4CNC(=O)[C@@H]43)ncc2c(N)n1 [Compound 158] measured with HPK1.
Return: 3.6 nM

Enquiry: Please indicate recorded Ki of CCc1ccncc1-c1cc2cc(NC(=O)CCC#N)ncc2c(N)n1 [Compound 28] measured with HPK1.
Return: 14.9 nM

Enquiry: Please indicate recorded Ki of Cc1ccncc1-c1cc2cc(NC(=O)[C@H]3C[C@@H]3C3CNC(=O)O3)ncc2c(N)n1 (some centres unmarked) [Compound 231] measured with HPK1.
Return: 0.173 nM

Enquiry: Please indicate recorded Ki of CCc1ccncc1-c1cc2cc(NC(=O)N[C@@H]3CCN(C)C3=O)ncc2c(N)n1 [Compound 176] measured with HPK1.
Return: 5.5 nM

Enquiry: Please indicate recorded Ki of Nc1nc(-c2cnccc2CCO)cc2cc(NC(=O)[C@@H]3C[C@H]3c3cnsc3)ncc12 [Compound 246] measured with HPK1.
Return: 0.0455 nM

Enquiry: Please indicate recorded Ki of N#C[C@H]1C[C@@H]1C(=O)Nc1cc2cc(-c3cnccc3-c3cn[nH]c3)nc(N)c2cn1 [Compound 236] measured with HPK1.
Return: 23.3 nM

Enquiry: Please indicate recorded Ki of CNC(=O)C(C)(C)n1cc(Nc2cc3cc(-c4cnccc4C)nc(N)c3cn2)cn1 [Compound 182] measured with HPK1.
Return: 1.2 nM

Enquiry: Please indicate recorded Ki of Cc1ccncc1-c1cc2cc(Nc3ccc(N4CCNCC4=O)cc3)ncc2c(N)n1 [Compound 265] measured with HPK1.
Return: 0.249 nM

Enquiry: Please indicate recorded Ki of Cc1ccncc1-c1cc2cc(NC(=O)[C@@H]3CC[C@H]3C)ncc2c(N)n1 [Compound 322] measured with HPK1.
Return: 14.8 nM

Enquiry: Please indicate recorded Ki of COCCn1cc([C@H]2C[C@@H]2C(=O)Nc2cc3cc(-c4cnccc4C)nc(N)c3cn2)cn1 [Compound 331] measured with HPK1.
Return: 1.12 nM

Enquiry: Please indicate recorded Ki of Cc1ccncc1-c1cc2cc(Nc3ccn(C)c(=O)c3)ncc2c(N)n1 [Compound 170] measured with HPK1.
Return: 3 nM

Enquiry: Please indicate recorded Ki of CCc1ccncc1-c1cc2cc(Nc3cc(C)ncn3)ncc2c(N)n1 [Compound 80] measured with HPK1.
Return: 0.3 nM

Enquiry: Please indicate recorded Ki of Cc1ccncc1-c1cc2cc(NC(=O)[C@@H]3[C@@H](C)[C@H]3c3cnn(C)c3)ncc2c(N)n1 [Compound 326] measured with HPK1.
Return: 0.074 nM

Enquiry: Please indicate recorded Ki of CCc1ccncc1-c1cc2cc(NC(=O)Cc3ccn[nH]3)ncc2c(N)n1 [Compound 102] measured with HPK1.
Return: 21.5 nM
